Target: GPR40 (Homo sapiens)
Sequence (O14842 whole entry): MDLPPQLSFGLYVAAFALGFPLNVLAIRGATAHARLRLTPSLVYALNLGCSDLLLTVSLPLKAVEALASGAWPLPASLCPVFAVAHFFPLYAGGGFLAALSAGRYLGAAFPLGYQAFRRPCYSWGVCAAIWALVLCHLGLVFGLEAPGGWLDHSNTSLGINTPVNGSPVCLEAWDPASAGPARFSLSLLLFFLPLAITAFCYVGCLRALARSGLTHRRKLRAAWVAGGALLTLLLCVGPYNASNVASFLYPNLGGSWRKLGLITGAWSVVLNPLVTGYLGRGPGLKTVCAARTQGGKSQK
Assay: IP1 accumulation assay in HEK293 cells stably expressing GPR40
Details: HEK293 cells stably expressing GPR40, 2 hours at 37° C.
pEC50: −log10 of the molar value.
pEC50 reference
QUANTITY_MEASURED: pEC50

* COc1ccc(C(=O)N(CC(C)(C)CCCCCCCCCCCCCCCCCC(=O)NCC[N+](C)(CC(=O)NCCN)CC(=O)NCCN)c2cccc(C)n2)c(N2CCC(COc3cc([C@@H](CC(=O)O)C4CC4)ccn3)CC2)c1 [Example 7] | 9.28
* COc1ccc(C(=O)N(CC(C)(C)CCCCCCCCCCCCCCCCCCCCC(=O)NCC[N+](C)(CC(=O)NCCN)CC(=O)NCCN)c2cccc(C)n2)c(N2CCC(COc3cc([C@@H](CC(=O)O)C4CC4)ccn3)CC2)c1 [Example 10] | 8.44
* COc1ccc(C(=O)N(CC(C)(C)CCCCCCCCCCCCCCCCCCCC(=O)NCC[N+](C)(CCCC(=O)NCCN)CCCC(=O)NCCN)c2cccc(C)n2)c(N2CCC(COc3cc([C@@H](CC(=O)O)C4CC4)ccn3)CC2)c1 [Example 9] | 9.46
* COc1ccc(C(=O)N(CC(C)(C)CCCCCCCCCCCCCCCCCCCC(=O)NCCN(CCCC(=O)NCCN)CCCC(=O)NCCN)c2cccc(C)n2)c(N2CCC(COc3cc([C@@H](CC(=O)O)C4CC4)ccn3)CC2)c1 [Example 8] | 9.55

The measured values listed here are drawn from patent US20250073338A1.
